Below, each entry is listed with its recorded normalized growth.
test: chemical genetic growth profiling, strain panel (AID 1159580);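 note: tested at 20 µM; growth read once vehicle control cultures reached saturation at 30 °C; 1 = growth at the plate median or of vehicle wells; lower values mean less growth of the strain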
test.settings: S. cerevisiae deletion strains, growth OD, locus YML124C, strain tub3, hits give low values
Screen size: about 5,500 compounds; about 2,000 (36%) were called active. Roughly 18% stayed inconclusive and do not appear here. The list shows a part of the results.
Reply with the value as a number alone.

Check out these entries, answers already filled in.
compound	observed.property	data.value
CCOC(=O)[C@H](CCc1ccccc1)N[C@@H](C)C(=O)N1[C@H](C(=O)O)C[C@@H]2CCC[C@@H]21	normalized growth	1.02
COc1cc(-c2coc3cc(OCc4ccccc4)c(OC)c(O)c3c2=O)cc(O)c1OC	normalized growth	0.964
CC(C)NCC(O)c1cc(O)cc(O)c1 (stereo not given)	normalized growth	1
C=C1C(C)C2C(Cc3ccccc3)NC(=O)C23OC(=O)/C=C/C(O)CCCC(C)C/C=C/C3C1O (stereo not given)	normalized growth	0.997
CC(=O)OCC(OC(C)=O)C(OC(C)=O)C(OC(C)=O)C(OC(C)=O)C(COC(C)=O)OC(C)=O (stereo not given)	normalized growth	0.99
COC(=O)C(C)c1ccc(C(=O)c2cccs2)cc1 (stereo not given)	normalized growth	0.958

So, `COc1ccc([C@H]2Oc3cc(OC)cc(OC)c3C[C@H]2O)cc1` ? Its normalized growth was 1

So, C=C1C(C)C2C(Cc3ccccc3)NC(=O)C23OC(=O)/C=C/C(=O)CCCC(C)C/C=C/C3C1O (stereo not given) ? Its normalized growth was 1.01

So, C=CCCCCCCCCCCCC(O)CC(O)COC(C)=O (stereo not given) (tested in a mixture with another compound) ? Its normalized growth was 0.997

So, O=C1CC2OCC=C3CN4CC[C@]56c7ccccc7N1C5[C@H]2[C@H]3CC46 (stereo not given in full) ? Its normalized growth was 0.999

So, `CCCCOC(=O)c1ccc(N)cc1` ? Its normalized growth was 0.939

----------
test: chemical genetic growth profiling, strain panel (AID 1159580)
test.settings: S. cerevisiae deletion strains, growth OD, locus YNL153C, strain GIM3, hits give low values
Out of some 5,500 compounds screened, about 2,000 (36%) were called active. Roughly 18% stayed inconclusive and do not appear here. The list shows a part of the results.
Below, each entry is listed with its recorded normalized growth.

Check out these entries, answers already filled in.
compound	normalized growth
O=C(CSCc1cccc2ccccc12)NNC(=S)Nc1ccccc1Cl	0.958 (inactive)
OCc1cnc[nH]1	1.05 (inactive)
COC(=O)[C@@H]1OC(=O)[C@H]2O[C@@]23[C@@]1(C)CCC1[C@@]2(C)CCC(=O)C(C)(C)C2C[C@@H](OC(C)=O)[C@]13C (stereo partly drawn)	1.03 (inactive)
Cc1ccc(NS(C)(=O)=O)cc1N=Cc1ccc(Cl)c(Cl)c1	0.986 (inactive)
c1ccc(-c2cc3c(nn2)CCc2nonc2-3)cc1	0.99 (inactive)
COC(=O)c1sccc1-c1ccc(C(C)=O)o1	0.982 (inactive)
NCCc1c[nH]c2ccc(C(N)=O)cc12	1.01 (inactive)
CC(C)NNC(=O)c1ccncc1	1.01 (inactive)

So, `N#C/C(=C\c1cccn1-c1ccc(OC(F)(F)F)cc1)S(=O)(=O)c1ccccc1` ? Its normalized growth was 1.03 (inactive)

So, NC(CO)C(=O)NNCc1ccc(O)c(O)c1O (stereo not drawn) ? Its normalized growth was 1 (inactive)

So, `CC(C)n1cc(C#N)c(=O)n(Cc2ccccc2)c1=O` ? Its normalized growth was 0.984 (inactive)

So, CC(C)(C)C1(O)CCN2CC3c4ccccc4CCc4cccc(c43)C2C1 (stereo not drawn) ? Its normalized growth was 0.983 (inactive)

So, `Cc1cccc2c1N(C(=S)Nc1ccccc1Cl)CCC2` ? Its normalized growth was 0.913 (active)

So, `CSC(=NC#N)N1CCN(c2ccc([N+](=O)[O-])cn2)CC1` ? Its normalized growth was 1 (inactive)

So, `Cc1onc(-c2c(F)cccc2Cl)c1C(=O)c1ccc(F)cc1` ? Its normalized growth was 0.973 (inactive)

So, `Cc1ccc(-n2cccc2)c(NC(=S)Nc2ccc(Br)cc2OC(F)(F)F)c1` ? Its normalized growth was 0.979 (inactive)

So, `O=C(O)Cc1c[nH]c2ccc(O)cc12` ? Its normalized growth was 0.961 (inactive)

So, CC1(C)O[C@@H]2CC3C4CCC5=CC(=O)CCC5(C)C4(F)C(O)CC3(C)[C@]2(C(=O)CCl)O1 (stereo partly drawn) ? Its normalized growth was 1.06 (inactive)

So, `O=C(O)Cc1ccc(O)c(O)c1` ? Its normalized growth was 1.02 (inactive)

So, `CCOC(=O)Cn1c(=O)c(C#N)cn(C(C)C)c1=O` ? Its normalized growth was 1 (inactive)

So, `O=C1NC(=O)C(=O)C(=O)N1` ? Its normalized growth was 1.02 (inactive)

So, `CCCc1cnc(N2CCCN(C(=S)Nc3cccnc3)CC2)nc1` ? Its normalized growth was 1.02 (inactive)

So, `O=[N+]([O-])c1ccc(N2CCCN(C(=S)Nc3ccc(Cl)cc3Cl)CC2)nc1` ? Its normalized growth was 0.98 (inactive)

So, `COc1cc([C@@H]2c3cc4c(c(O)c3C[C@H]3COC(=O)[C@@H]32)OCO4)cc(OC)c1OC` ? Its normalized growth was 1.03 (inactive)

So, `CC(C)(C)CC(C)(C)c1ccc(O)c(Cc2ccc(Cl)cc2Cl)c1` ? Its normalized growth was 1 (inactive)

----------
Below, each entry is listed with its recorded normalized growth.
test: chemical genetic growth profiling, strain panel (AID 1159580);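 note: tested at 20 µM; growth read once vehicle control cultures reached saturation at 30 °C; 1 = growth at the plate median or of vehicle wells; lower values mean less growth of the strain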
test.settings: S. cerevisiae deletion strains, growth OD, locus YLR330W, strain CHS5, hits give low values
The campaign covered roughly 5,500 compounds. About 2,000 (36%) were called active. Inconclusive results (about 18%) are left out. The list shows a part of the results.
Reply with the value as a number alone.

compound	normalized growth
CC(=O)OC1CCC2(C)C(=CC=C3C2CCC2(C)C3CCC2C(C)/C=C/C(C)C(C)C)C1(C)C (stereo not drawn)	1.02

So, C#CCCCCCCCCCCCC(O)CC(O)COC(C)=O (stereo not drawn) ? Its normalized growth was 0.981

So, `Cc1cccc(Nc2ccccc2C(=O)O)c1C` ? Its normalized growth was 0.87

So, `CCC(C)(C)C(=O)O[C@H]1C[C@@H](C)C=C2C=C[C@H](C)[C@H](CC[C@@H]3C[C@@H](O)CC(=O)O3)[C@H]21` ? Its normalized growth was 1

So, CC1C[C@H]2CC(=O)[C@H]3CCCN4CCC[C@H]2[C@]34C1 (stereo partly drawn) ? Its normalized growth was 1

So, C#CCCCCCCCCCCCC(O)CC(O)CO (stereo not drawn) ? Its normalized growth was 0.99

So, `CC(=O)Oc1c(C)cccc1C(=O)O` ? Its normalized growth was 1

So, CC[C@H](C)C(=O)O[C@H]1CCC=C2C=C[C@H](C)C(CCC3C[C@@H](O)CC(=O)O3)[C@H]21 (stereo partly drawn) ? Its normalized growth was 0.991

----------
test: chemical genetic growth profiling, strain panel (AID 1159580);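 note: tested at 20 µM; growth read once vehicle control cultures reached saturation at 30 °C; 1 = growth at the plate median or of vehicle wells; lower values mean less growth of the strain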
test.settings: S. cerevisiae deletion strains, growth OD, locus YOR184W, strain ser1, hits give low values
The whole screen tested about 5,500 compounds, of which about 2,000 (36%) were called active. Roughly 18% stayed inconclusive and do not appear here. This is one part of the list.
observed.property: normalized growth
Reply with the value as a number alone.

Check out these entries, answers already filled in.
compound	normalized growth
CC(=O)OCC(COC(C)=O)OC(C)=O	1.02
C=C1C(C)C2C(Cc3ccccc3)NC(=O)C23OC(=O)/C=C/C(=O)CCCC(C)C/C=C/C3C1O (stereo not drawn)	0.992
CC1OC1P(=O)(O)O (stereo not drawn)	0.972
O=C(O)c1cc2cc(Cc3cccnc3)ccc2o1	0.988
COc1cc(-c2coc3cc(OCc4ccccc4)c(OC)c(O)c3c2=O)cc(OCc2ccccc2)c1OC	0.979

So, C=C1CCC2C(CC2(C)C)C(=O)CCC1O (stereo not drawn) ? Its normalized growth was 0.989

So, O=C(C1CCCCC1)N1CC(=O)N2CCc3ccccc3C2C1 (stereo not drawn) ? Its normalized growth was 1

So, `COC(=O)C1=CCCN(C)C1` ? Its normalized growth was 0.989

So, O=C1[C@H](CCC(O)c2ccc(F)cc2)[C@@H](c2ccc(O)cc2)N1c1ccc(F)cc1 (stereo partly drawn) ? Its normalized growth was 0.972

So, CC1C[C@H]2CC(=O)[C@H]3CCCN4CCC[C@H]2[C@]34C1 (stereo partly drawn) ? Its normalized growth was 1.01

----------
test: chemical genetic growth profiling, strain panel (AID 1159580);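 note: tested at 20 µM; growth read once vehicle control cultures reached saturation at 30 °C; 1 = growth at the plate median or of vehicle wells; lower values mean less growth of the strain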
test.settings: S. cerevisiae deletion strains, growth OD, locus YPR106W, strain ISR1, hits give low values
Among all 5,500 compounds or so, about 2,000 (36%) were called active. Not shown: some 18% with an inconclusive outcome. The list shows a part of the results.
observed.property: normalized growth
Reply with the value as a number alone.

compound	normalized growth
S=c1[nH]nc(Nc2ccc(I)cc2)s1	0.894
Cc1cccc(NC(=S)NNC(=O)CSCc2cccc3ccccc23)c1	0.99
O=[N+]([O-])c1ccc2oc(C(O)c3cccc(Cl)c3)cc2c1 (stereo not given)	0.961
OC(CN1CCN(c2nc3ccc(Cl)cc3s2)CC1)Cn1ccc2ccccc21 (stereo not given)	0.991

Now for the compound whose normalized growth we want.
So, `CCCCN(C)C(=O)c1cc([N+](=O)[O-])cc2c1-c1ccc([N+](=O)[O-])cc1C2=C(C#N)C#N` ? Its normalized growth was 0.985
